B1: glmS ribozyme (parent)
chain: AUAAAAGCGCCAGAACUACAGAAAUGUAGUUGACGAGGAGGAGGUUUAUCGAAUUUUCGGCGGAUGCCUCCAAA

Variants of: B1
Test: KM; higher = weaker cofactor use; RNA array
Details: with glucosamine-6-phosphate
Respond with criterion met for KM values of 2000 µM and above, criterion not met for values below.

Query block: Assess whether reported KM for AUAAAAGCGCCAGAACUACAGAAAUGUAGUUGACGAAGAGGAGGUUUAUCGAAAUUUCGGCGGAGGCCUCCAAA [G37A U54A U65G] sits at 2000 µM or higher.
Result block: criterion met

Query block: Assess whether reported KM for AUAAAAGCGCCAGAACUACAGAAAUGUAGCUCACGAGGAGGAGGUUUAUCGAAUUUUCGGCGGAUGCCUCCAAA [U30C G32C] sits at 2000 µM or higher.
Result block: criterion met

Query block: Assess whether reported KM for AUAAAAGCGCCAGAACUACAGAAAUGUAGUUGACGAGGAGGAGGUCUAUCGAAUCUUCGGCGGAUGCCUCCAAA [U46C U55C] sits at 2000 µM or higher.
Result block: criterion met

Query block: Assess whether reported KM for AUAAAAGCGCCGGAACUACAGAAAUGUAGUUGACGAGGAGGAGGUUUAUCGAAUUUUCGGCGGAUGGCUCCAAA [A12G C67G] sits at 2000 µM or higher.
Result block: criterion not met

Query block: Assess whether reported KM for AUAAAAGCGCCAGAACUACAGAAAUGUAGUUGACGAGGAGGAGGGUUAUCGAAUUUUCGGCGGAUGCCUCCAAA [U45G] sits at 2000 µM or higher.
Result block: criterion met

Query block: Assess whether reported KM for AUAAAAGCGCCAGAACUACAGAAAUGUAGUUGACGAGGAGGAGGUUUAGCGAUUUUUCGGCGGAUGCCUCCAAA [U49G A53U] sits at 2000 µM or higher.
Result block: criterion met

Query block: Assess whether reported KM for AUAAAAGCGCCAGAGCUACAGAAAUGUAGUUGACGAGGAGGUGGUUUAUCGAAUUUUCGGCGGAUGCCUCCAAA [A15G A42U] sits at 2000 µM or higher.
Result block: criterion not met

Query block: Assess whether reported KM for AUAAAAGCGCCGGAACUACAGAAAUGUAGUUGACGAGGUGGAGGUUUAUCGAAUUUUCGGCGGAUGCCUCCAAA [A12G A39U] sits at 2000 µM or higher.
Result block: criterion met

Query block: Assess whether reported KM for AUAAAAGCGCCAGAACUACAGAAAUGUAUUUGACGAAGAGGAGGUUUAUCGAAUUUUCGGCGGAUGCCUCCAAA [G29U G37A] sits at 2000 µM or higher.
Result block: criterion met

Query block: Assess whether reported KM for AUAAAAGCGCCAGAACUACAGAAAUGUAGUUGACGAGGAGAAGGUUCAUCGAAUUUUCGGCGGAUGCCUCCAAA [G41A U47C] sits at 2000 µM or higher.
Result block: criterion not met

Query block: Assess whether reported KM for AUAAAAGCGCCAGAACUACAGAAAUGUAGUUGUCGAGGAGGAGGUUUAUCGAAUUUUCGGCGGAUACCUCCAAA [A33U G66A] sits at 2000 µM or higher.
Result block: criterion met

Query block: Assess whether reported KM for AUAAAAGCGCCAGAACUACAGAAAUGUAGUUGACGAAGAGGAGGUUUAUCGAUUUUUCGGCGGAUGCCUCCAAA [G37A A53U] sits at 2000 µM or higher.
Result block: criterion met

Query block: Assess whether reported KM for AUAAAAGCGCCAGAACUACAGAAAUGUAGUUGACGAGGAGGAGGUUUAUCGAAUUUUCGGCGGAUGGCCCCAAA [C67G U69C] sits at 2000 µM or higher.
Result block: criterion not met

Query block: Assess whether reported KM for AUAAAAGCGCCUGAACUACAGAAAUGUAGUUGUCGAGGAGGAGGUUUAUCGAAUUUUCGGCGGAUGCCUCCAAA [A12U A33U] sits at 2000 µM or higher.
Result block: criterion met

Query block: Assess whether reported KM for AUAAAAGCGCCAGAACUACAGAAAUGUAAUUGACGAGGAGGAGGUUUAUCGAAUGUUCGGCGGAUGCCUCCAAA [G29A U55G] sits at 2000 µM or higher.
Result block: criterion met

Query block: Assess whether reported KM for AUAAAAGCGCCAGAACUACAGAAAUGUAGUUGACGAGGCGGAGGUUUAUCGAAUUGUCGGCGGAUGCCUCCAAA [A39C U56G] sits at 2000 µM or higher.
Result block: criterion met

Query block: Assess whether reported KM for AUAAAAGCGCCAGAACUACAGAAAUGUAGUUGACGAGGAGGAGGUUUAUCGAAUUUUCGGCGGCUGCCUCCAAA [A64C] sits at 2000 µM or higher.
Result block: criterion not met

Query block: Assess whether reported KM for AUAAAAGCGCCAGAACUACAGAAAUGUAGUUGACGAAGAGGAGGUUUAUCGACUUUUCGGCGGAUGCCUCCAAA [G37A A53C] sits at 2000 µM or higher.
Result block: criterion met

Query block: Assess whether reported KM for AUAAAAGCGCCAGAACUACAGAAAUGUAGUUGACGAGGAGGAGGUUUCUCGAAGUUUCGGCGGAUGCCUCCAAA [A48C U54G] sits at 2000 µM or higher.
Result block: criterion met

Query block: Assess whether reported KM for AUAAAAGCGCCAGAACUACAGAAAUGUAAUUGACGAGGAGGGGGUUUAUCGAAUUUUCGGCGGAUGCCUCCAAA [G29A A42G] sits at 2000 µM or higher.
Result block: criterion not met

Query block: Assess whether reported KM for AUAAAAGCGCCAGAACUACAGAAAUGUAGUUGACGAGGAGCAGGUUUAUCGAAUUUUCGGCGGAUGCCUCUAAA [G41C C71U] sits at 2000 µM or higher.
Result block: criterion met
